system: Aphis craccivora; assay: Insecticidal activity against Aphis craccivora (cowpea aphid) assessed as mortality at 500 mg/L; type: functional
Observable: mortality at 500 µg/mL (%)

[
  {
    "Molecule": "O=[N+]([O-])C1=C2N(Cc3ccc(Cl)nc3)C[C@H]3CCC[C@H]3N2CN(CCO)C1 (relative stereo)",
    "U": "%",
    "Result Number": 30
  },
  {
    "Molecule": "CN1CC([N+](=O)[O-])=C2N(Cc3ccc(Cl)nc3)C[C@H]3CCC[C@H]3N2C1",
    "U": "%",
    "Result Number": 30
  },
  {
    "Molecule": "CCCCN1CC([N+](=O)[O-])=C2N(CC3COCO3)CCN2C1 (centres undefined)",
    "U": "%",
    "Result Number": 0
  },
  {
    "Molecule": "O=[N+]([O-])C1=C2N(Cc3ccc(Cl)nc3)CCN2[C@H](c2ccco2)[C@@](C2=NCCN2Cc2ccc(Cl)nc2)([N+](=O)[O-])[C@H]1c1ccco1",
    "U": "%",
    "Result Number": 87
  },
  {
    "Molecule": "CCCCN1CC([N+](=O)[O-])=C2N(Cc3ccc(Cl)nc3)C[C@H]3CCC[C@H]3N2C1 (relative stereo)",
    "U": "%",
    "Result Number": 30
  },
  {
    "Molecule": "CC(C)N1CC([N+](=O)[O-])=C2N(CC3COCO3)CCN2C1 (centres undefined)",
    "U": "%",
    "Result Number": 0
  },
  {
    "Molecule": "CCN1CC([N+](=O)[O-])=C2N(CC3COCO3)CCN2C1 (centres undefined)",
    "U": "%",
    "Result Number": 0
  },
  {
    "Molecule": "CCCN1CC([N+](=O)[O-])=C2N(CC3COCO3)CCN2C1 (centres undefined)",
    "U": "%",
    "Result Number": 0
  },
  {
    "Molecule": "O=[N+]([O-])C1=C2N(CC3COCO3)CCN2CN(CCO)C1 (centres undefined)",
    "U": "%",
    "Result Number": 0
  }
]
